Each recorded value in this set is attributed to ChEMBL document CHEMBL1122187.

System: Vero
Assay name: In vitro antiviral activity against vaccinia(VV) virus was determined in african green monkey kidney (vero,V) expressed as virus rating. Toxic level(>1000 ug/mL)
Format: functional, Chlorocebus sabaeus
Exercise: for every item that follows, state its recorded Virus rating.
Just the number.

Return Virus rating measured with Vero given this compound: `OC[C@H]1O[C@@H](n2ccc3c(S)ncnc32)[C@H](O)[C@@H]1O` 0.5

Lookup `CSc1ncnc2c1ccn2[C@@H]1O[C@H](CO)[C@@H](O)[C@H]1O` 1

Lookup OC[C@H]1OC(n2ncc3c(S)ncnc32)[C@H](O)[C@@H]1O (stereo partly specified) 0.9

Lookup NC(=O)c1ncnc2c1ncn2C1O[C@H](CO)[C@@H](O)[C@H]1O (stereo partly specified) 1.5

Lookup NC(=O)c1ncnc2c1cnn2C1O[C@H](CO)[C@@H](O)[C@H]1O (stereo partly specified) 0

Lookup `NC(=O)c1ncn([C@@H]2O[C@H](CO)[C@@H](O)[C@H]2O)n1` 1.2
